The measured values listed here are drawn from ChEMBL document CHEMBL6153089.

- testName: Tmax in female BALB/c mouse at 20 mg/kg, po measured after 24 hrs by LC-MS/MS analysis
- Type: ADME, organism-based
- conditionNotes: in vivo
reportedProperty: Tmax (min)
Number in min, nothing else.

Find the recorded Tmax belonging to Cn1cc(-c2nc(N3CCOCC3)c3sc(CN4CCC(C(C)(C)O)CC4)cc3n2)c2cc[nH]c2c1=O and report it.
30

###

# Lookup of reported inhibition keyed by entry
- testTarget: Bromodomain-containing protein 4 (Homo sapiens, UniProt O60885)
- testName: Inhibition of His-tagged BRD4-BD1 (unknown origin) at 10 nM incubated for 30 mins by Alphascreen assay relative to control
Number in %, nothing else.

Use the examples below as a reference point.
1) CC(=O)Nc1cc(-c2nc(N3CCOCC3)c3sc(CN4CCN(CC5CC5)CC4)cc3n2)cn(C)c1=O ... 3
2) Cc1c(-c2nc(N3CCOCC3)c3sc(CN4CCN(CC5CC5)CC4)cc3n2)cn(C)c(=O)c1N ... 1.4
3) Cn1cc(-c2nc(N3CCOCC3)c3sc(CN4CCN(CC5CC5)CC4)cc3n2)c2cc[nH]c2c1=O ... 58.2

Continue with the next compound.
Find the recorded inhibition belonging to Cn1cc(-c2nc(N3CCCCC3)c3sc(CN4CCN(CC5CC5)CC4)cc3n2)c2cc[nH]c2c1=O and report it.
35

###

- testName: Half-life in female BALB/c mouse at 1 mg/kg, iv measured after 12 hrs by LC-MS/MS analysis
- Assay type: ADME, organism-based
- conditionNotes: in vivo
reportedProperty: half-life (h)
Number in h, nothing else.

Find the recorded half-life belonging to Cn1cc(-c2nc(N3CCOCC3)c3sc(CN4CCC(C(C)(C)O)CC4)cc3n2)c2cc[nH]c2c1=O and report it.
2

###

- testName: Clearance in female BALB/c mouse at 1 mg/kg, iv measured after 12 hrs by LC-MS/MS analysis
- Assay type: ADME, organism-based
- conditionNotes: in vivo
reportedProperty: clearance (mL/min/kg)
Number in mL/min/kg, nothing else.

Find the recorded clearance belonging to Cn1cc(-c2nc(N3CCOCC3)c3sc(CN4CCC(C(C)(C)O)CC4)cc3n2)c2cc[nH]c2c1=O and report it.
112

###

- testName: Cmax in female BALB/c mouse at 1 mg/kg, iv measured after 12 hrs by LC-MS/MS analysis
- Type: ADME, organism-based
- conditionNotes: in vivo
reportedProperty: Cmax (ng/mL)
Number in ng/mL, nothing else.

Find the recorded Cmax belonging to Cn1cc(-c2nc(N3CCOCC3)c3sc(CN4CCC(C(C)(C)O)CC4)cc3n2)c2cc[nH]c2c1=O and report it.
544

###

- testTarget: Bromodomain-containing protein 4 (Homo sapiens)
- testName: Inhibition of His-tagged BRD4-BD1 (unknown origin) at 10 nM incubated for 30 mins by Alphascreen assay relative to control
Please enter 1 (yes) where inhibition is greater than or equal to 30%, and 0 (no) where it is lower.

Example entries begin here.
1) C[C@H](O)C(=O)N1CCN(Cc2cc3nc(-c4cn(C)c(=O)c5[nH]ccc45)nc(N4CCOCC4)c3s2)CC1 ... 1 (yes)
2) Cn1cc(-c2nc(N3CCOCC3)c3sc(CN4CCC(O)CC4)cc3n2)c2cc[nH]c2c1=O ... 1 (yes)
3) Cn1ccc(-c2nc(N3CCOCC3)c3sc(CN4CCN(CC5CC5)CC4)cc3n2)cc1=O ... 0 (no)
4) Cn1cc(-c2nc(N3CCOCC3)c3sc(CN4CCN(C(=O)CN)CC4)cc3n2)c2cc[nH]c2c1=O ... 0 (no)
5) Cn1cc(-c2nc(N3CCOCC3)c3sc(CN4CCC(C(C)(C)O)CC4)cc3n2)c2cc[nH]c2c1=O ... 1 (yes)
6) C[C@@H](N)C(=O)N1CCN(Cc2cc3nc(-c4cn(C)c(=O)c5[nH]ccc45)nc(N4CCOCC4)c3s2)CC1 ... 1 (yes)
7) Cn1cc(-c2nc(N3CCOCC3)c3sc(CN4CCN(S(C)(=O)=O)CC4)cc3n2)c2cc[nH]c2c1=O ... 1 (yes)

I'd appreciate it if you could say whether Cn1cc(-c2nc(N3CCOCC3)c3sc(CN4CCN(CC5CC5)CC4)cc3n2)ccc1=O has inhibition at least equal to 30%.
1 (yes)
